B1: CDC34 (parent)
chain: GGYFKARLKFPIDYPYSPPAFRFL

Variants of: B1
Assay: protein stability index of a GFP-peptide fusion (GPS, HEK-293T) (PSI 1-6); higher = more stable;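 note: lentivirally expressed fusions sorted by FACS into six bins by GFP to DsRed ratio, PSI derived from sequencing read proportions per bin multiplied by bin number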
Conditions: c terminus: a fixed tail appended
test-readout: protein stability index

Example results:
D13C: 2.51
Y16V: 3.55
L24D: 2.33

# per-item lookup of protein stability index; items listed below
1. K5I
2. G1T

Reply:
1: 2.76; 2: 3.19
